# Test: Solubility tests in biological media of SGF, FaSSIF and FeSSIF
# Assay type: physicochemical
# Condition Notes: simulated gastric fluid, thermodynamic from solid; SGF, 0.5 h, visual observation
Reported Metric: solubility at 0.5 h

COC(=O)N1CCO[C@@H](Cc2c(-c3c(F)cc(S(N)(=O)=O)cc3F)nc3cc(Cl)ccn23)C1 [Crystal form III]	> 5000 µg/mL

###

# Test: Solubility tests in biological media of SGF, FaSSIF and FeSSIF
# Assay type: physicochemical
# Condition Notes: pH 1.1, simulated gastric fluid, thermodynamic from solid; SGF, 2 h, visual observation
Reported Metric: solubility at 2 h

COC(=O)N1CCO[C@@H](Cc2c(-c3c(F)cc(S(N)(=O)=O)cc3F)nc3cc(Cl)ccn23)C1 [Crystal form V]	> 5000 µg/mL
